Reported % Inh at 10 nM values follow for various binders
# systemName: T1, human GIP receptor (human), P48546
# T1 chain: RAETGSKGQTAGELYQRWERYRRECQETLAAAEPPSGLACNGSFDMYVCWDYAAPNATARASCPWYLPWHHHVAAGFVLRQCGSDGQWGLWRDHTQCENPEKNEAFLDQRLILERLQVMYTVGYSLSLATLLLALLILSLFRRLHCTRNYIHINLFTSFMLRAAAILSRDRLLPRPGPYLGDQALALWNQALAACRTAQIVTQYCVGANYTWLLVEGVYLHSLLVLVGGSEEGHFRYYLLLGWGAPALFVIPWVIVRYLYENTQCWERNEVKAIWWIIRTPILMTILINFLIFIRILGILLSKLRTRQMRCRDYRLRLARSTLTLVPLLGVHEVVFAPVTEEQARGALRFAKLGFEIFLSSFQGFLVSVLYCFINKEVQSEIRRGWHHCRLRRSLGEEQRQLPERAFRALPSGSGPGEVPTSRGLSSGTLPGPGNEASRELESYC
# experimentalProtocol: 125I-GIP displacement by 10 nM analog, HEK-GIPR membranes
Just the number please, in %, no unit attached.

# binder, % Inh at 10 nM [%]
records = [
    ("YAEGTFISDYSIAMDKIHQQDFVNWLEAQKPKKIRYS (modifications not checked) [0601GIP4771]", 17.8),
    ("YAEGTFISDYSIAMDKIHQQDFVNWLLAQKGFVLWKGIQ (modifications not checked) [0601GIP4619]", 84.6),
    ("YAEGTFISDYSIAMDKIHQQDFVNELLAQKPKKIRYS (modifications not checked) [0601GIP4769]", 42.8),
]

Given the entry HAEGTFISDYSIAMDKIHQQDFVNWLLAQKPKKIRYS (modifications not checked) [0601GIP4840] , report its measured % Inh at 10 nM.
44.1

Given the entry LYAEGTFISDYSIALDKIAQQEFVNWLLAQKPKKIRYS (modifications not checked) [0601GIP4803] , report its measured % Inh at 10 nM.
89.9

Given the entry YAEGTFISDYSIAMDKIHQQDFVNWLLAQKPKKIRYS (modifications not checked) [0601GIP4762] , report its measured % Inh at 10 nM.
79.1

Given the entry YAEGTFISDYSIALDKIAQQEFVNWLLAQKPKKIRYS (modifications not checked) [0601GIP4631] , report its measured % Inh at 10 nM.
79

Given the entry YSDGTFISDYSIAMDKIHQQDFVNWLLAQKPKKIRYS (modifications not checked) [0601GIP4386] , report its measured % Inh at 10 nM.
93.6

Given the entry IYAEGTFISDYSIAMDKIHQQDFVNWLLAQKPKKIRYS (modifications not checked) [0601GIP4801] , report its measured % Inh at 10 nM.
88.8

Given the entry YAEGTFISDYSIAMDKIHQQDFVNWLLAQKAKKIRYS (modifications not checked) [0601GIP4814] , report its measured % Inh at 10 nM.
88

Given the entry YAEGTFISDYSIAMDKIHQQDFVNWLLAQKPSPKKIRYS (modifications not checked) [0601GIP4823] , report its measured % Inh at 10 nM.
94.1
